System: EKVX
Assay: NCI tumour cell line growth inhibition, 48 h
Where a name gives a salt, the structure may show the parent alone. Active and inactive are the calls of the source. No stated cut-off is given here; in the data, active = GI50 up to about 1.1 µM and inactive = higher. Residues, ends and D or L forms follow the SMILES beside them. *: point of attachment. Boc = CC(C)(C)OC(=O)*; OBn = c1ccc(CO*)cc1; Bn = c1ccc(C*)cc1
Hello, when you answer, please use one of the following outcomes: y (active), n (inactive)

Molecule	Target Or System	Answer Label
CC(C)CC(NC(=O)C(Cc1ccccc1)NC(=O)C(COCc1ccccc1)NC(=O)OC(C)(C)C)C(=O)OCc1ccccc1 (stereo not drawn) (Boc-Ser(Bn)-Phe-Leu-OBn; configuration not given here)	EKVX	n
CN(C)CCOc1ccc(/C(=C(/CCCl)c2ccccc2)c2ccccc2)cc1 [TOREMIFENE CITRATE]	EKVX	n
CC[C@H](C)[C@H]1NC(=O)[C@@H](NC(=O)[C@@H](CC(C)C)N(C)C(=O)C2CCCN2C(=O)[C@H](C)O)[C@@H](C)OC(=O)[C@H](Cc2ccccc2)N(C)C(=O)[C@@H]2CCCN2C(=O)[C@H](CC(C)C)NC(=O)[C@@H](C)C(=O)[C@H](C(C)C)OC(=O)C[C@@H]1O (stereo partly specified)	EKVX	y
O=C(Nc1ccc(Cl)cc1Cl)C1C(=O)C(=O)N(c2ccc(Cl)cc2Cl)C1=O (stereo unspecified)	EKVX	n
O=C(Nc1ccc(Cl)cc1Cl)C1C(=O)N(c2ccc(Cl)cc2Cl)C(=O)/C1=N\Nc1ccc([N+](=O)[O-])cc1[N+](=O)[O-] (stereo unspecified)	EKVX	n

Here's the next entry for you.
input: Fill in: this test's call for "O=c1c2ccccc2c2c1c1c3ccccc3c(=O)c1c1c3ccccc3c(=O)c21" is ___
output: n

The values you see were collected from ChEMBL document CHEMBL1201862.
